- Assay context: 318.15 K; 96.7 kPa; Liquid; Capillary tube (Ostwald / Ubbelohde) method
Numbers after ± are expanded uncertainties.
Recorded viscosity, one value per entry.
Kindly write the number and append the unit.

Answered cases to consult:
CCCCCCn1cc[n+](C)c1.[Cl-] [1-hexyl-3-methylimidazolium chloride] ... 1390.4 ± 220 mPa·s
c1ccncc1 [pyridine] ... 0.697 ± 0.11 mPa·s
CC(=O)N(C)C [N,N-dimethylethanamide] ... 0.739 ± 0.11 mPa·s
CN(C)C=O [dimethylformamide] ... 0.651 ± 0.098 mPa·s

Shifting focus to the compound that follows.
Short answer for C[S+](C)[O-] [dimethyl sulfoxide] : viscosity was 1.407 ± 0.21 mPa·s

Where do the numbers come from? From the NIST ThermoML archive (doi:10.1016/j.jct.2017.07.016).
